Overview of recorded Ratio for various compounds
Target: Mu-type opioid receptor (Mus musculus) (UniProt P42866)
Sequence (P42866 whole entry): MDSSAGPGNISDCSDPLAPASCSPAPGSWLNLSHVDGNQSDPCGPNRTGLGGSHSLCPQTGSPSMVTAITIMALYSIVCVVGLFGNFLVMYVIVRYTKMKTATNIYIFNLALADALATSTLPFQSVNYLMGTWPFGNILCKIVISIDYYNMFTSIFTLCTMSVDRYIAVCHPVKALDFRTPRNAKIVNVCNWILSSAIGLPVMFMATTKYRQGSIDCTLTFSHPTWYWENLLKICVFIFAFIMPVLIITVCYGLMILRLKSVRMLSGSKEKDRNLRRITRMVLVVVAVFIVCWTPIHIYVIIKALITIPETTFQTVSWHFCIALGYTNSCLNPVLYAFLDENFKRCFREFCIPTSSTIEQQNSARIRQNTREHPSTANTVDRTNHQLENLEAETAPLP
Assay: Ratio of binding affinity against mu to that of delta opioid receptor
Enter the number alone.

Reference set, count: 4
1. CCNC(=O)c1ccc(C(=C2CC3CCC(C2)N3Cc2ccoc2)c2ccc(C(N)=O)cc2)cc1 ... 0.33
2. CCNC(=O)c1ccc(C(=C2CC3CCC(C2)N3Cc2ccoc2)c2ccc(C(=O)O)cc2)cc1 ... 2.3
3. CCNC(=O)c1ccc(C(=C2CC3CCC(C2)N3Cc2ccoc2)c2ccncc2)cc1 ... 0.37
4. CCNC(=O)c1ccc(C(=C2CC3CCC(C2)N3Cc2ccoc2)c2c(C)cccc2C)cc1 ... 1.1

Turning to the following compound.
Query CCNC(=O)c1ccc(C(=C2CC3CCC(C2)N3Cc2ccoc2)c2cccc(C(=O)O)c2)cc1 on Mu-type opioid receptor (Mus musculus) (UniProt P42866); Ratio returned: 8

* * *

Biological target: Mu-type opioid receptor (Mus musculus, UniProt P42866)
Overview of recorded pKi for various molecules
Scale: pKi equals -log10([C]), with [C] in mol/L.

1) CCNC(=O)c1ccc(C(Br)=C2CC3CCC(C2)N3Cc2ccoc2)cc1 ... 8.72

pKi for CCNC(=O)c1ccc(C(=C2CC3CCC(C2)N3Cc2ccoc2)c2cccc(CN)c2)cc1 is 7.15

pKi for C=C(C)CCN1[C@@H]2CC[C@H]1C/C(=C(\c1ccc(C(=O)NCC)cc1)c1cccc(C(C)=O)c1)C2 is 6.17

pKi for CCNC(=O)c1ccc(C(=C2CC3CCC(C2)N3Cc2ccoc2)c2ccc3c(c2)OCO3)cc1 is 8.96

pKi for CCNC(=O)c1ccc(C(=C2CC3CCC(C2)N3Cc2ccoc2)c2ccc(C(=O)O)cc2)cc1 is 7.92

pKi for CCNC(=O)c1ccc(C=C2CC3CCC(C2)N3Cc2ccoc2)cc1 is 6.96

pKi for CCNC(=O)c1ccc(/C(=C2\C[C@H]3CC[C@@H](C2)N3Cc2ccccn2)c2ccc(C(=O)N(C)C)cc2)cc1 is 7.85

pKi for CCNC(=O)c1ccc(C(=C2CC3CCC(C2)N3Cc2ccoc2)c2c(C)noc2C)cc1 is 8.74

pKi for CCNC(=O)c1ccc(C(=C2CC3CCC(C2)N3Cc2ccoc2)c2cccc(C(C)=O)c2)cc1 is 8.89

* * *

Molecular target: Mu-type opioid receptor (Mus musculus)
Assay: Ratio of binding affinity against mu to that of delta opioid receptor
MEASUREMENT_KIND: Ratio
Enter the number alone.

Reference set, count: 2
1) CCNC(=O)c1ccc(C(=C2CC3CCC(C2)N3Cc2ccoc2)c2nnn[nH]2)cc1 ... 0.4
2) CCNC(=O)c1ccc(C(=C2CC3CCC(C2)N3Cc2ccoc2)c2cnccn2)cc1 ... 2.9

Ratio for CCNC(=O)c1ccc(C(=C2CC3CCC(C2)N3Cc2ccoc2)c2ccc(F)cc2)cc1 is 1.2

Ratio for CCNC(=O)c1ccc(C(=C2CC3CCC(C2)N3Cc2c[nH]cn2)c2cccc(NC(C)=O)c2)cc1 is 0.5

Ratio for CCN(CC)C(=O)c1ccc(C(=C2CC3CCC(C2)N3CCc2ccccc2)c2ccccc2)cc1 is 0.0055

Ratio for CCNC(=O)c1ccc(C(=C2CC3CCC(C2)N3Cc2ccoc2)c2cccc(C#N)c2)cc1 is 5.5

Ratio for CCNC(=O)c1ccc(C(=C2CC3CCC(C2)N3Cc2cccc(C(=O)O)c2)c2ccccc2)cc1 is 1.7

Ratio for CCNC(=O)c1ccc(C(=C2CC3CCC(C2)N3Cc2ccsc2)c2cnccn2)cc1 is 0.15

Ratio for CCNC(=O)c1ccc(C(=C2CC3CCC(C2)N3Cc2ccoc2)c2cccc(N)c2)cc1 is 1.3

Ratio for CCNC(=O)c1ccc(C(=C2CC3CCC(C2)N3Cc2ccoc2)c2ccc(C(C)=O)cc2)cc1 is 5.2

Ratio for CCNC(=O)c1ccc(C(=C2CC3CCC(C2)N3Cc2ccoc2)c2ccc(C(=O)N(C)C)cc2)cc1 is 1.5

Ratio for CCNC(=O)c1ccc(C(=C2CC3CCC(C2)N3Cc2ccoc2)c2ccc(S(N)(=O)=O)cc2)cc1 is 3.1

Ratio for C=C(C)CCN1C2CCC1CC(=C(c1ccc(C(=O)NCC)cc1)c1ccco1)C2 is 1.1

Ratio for CCNC(=O)c1ccc(C(=C2CC3CCC(C2)N3Cc2ccoc2)c2c(C)noc2C)cc1 is 1.5

Ratio for CCNC(=O)c1ccc(C(=C2CC3CCC(C2)N3Cc2ccsc2)c2ccc3c(c2)OCO3)cc1 is 0.42

Ratio for CCNC(=O)c1ccc(C(=C2CC3CCC(C2)N3CCc2ccccc2)c2ccccc2)cc1 is 300

Ratio for CCNC(=O)c1ccc(C(=C2CC3CCC(C2)N3Cc2ccoc2)c2cccc(C(C)=O)c2)cc1 is 3.3

Ratio for CCNC(=O)c1ccc(C(=C2CC3CCC(C2)N3Cc2cccs2)c2ccccn2)cc1 is 1.6

Ratio for CCNC(=O)c1ccc(C(=C2CC3CCC(C2)N3Cc2ccoc2)c2ccccn2)cc1 is 4.5
